Provide the recorded Ki for the entries that follow.
assaySystem: recombinant human enteropeptidase (Homo sapiens (Human), UniProt P98073)
Sequence (P98073 whole entry): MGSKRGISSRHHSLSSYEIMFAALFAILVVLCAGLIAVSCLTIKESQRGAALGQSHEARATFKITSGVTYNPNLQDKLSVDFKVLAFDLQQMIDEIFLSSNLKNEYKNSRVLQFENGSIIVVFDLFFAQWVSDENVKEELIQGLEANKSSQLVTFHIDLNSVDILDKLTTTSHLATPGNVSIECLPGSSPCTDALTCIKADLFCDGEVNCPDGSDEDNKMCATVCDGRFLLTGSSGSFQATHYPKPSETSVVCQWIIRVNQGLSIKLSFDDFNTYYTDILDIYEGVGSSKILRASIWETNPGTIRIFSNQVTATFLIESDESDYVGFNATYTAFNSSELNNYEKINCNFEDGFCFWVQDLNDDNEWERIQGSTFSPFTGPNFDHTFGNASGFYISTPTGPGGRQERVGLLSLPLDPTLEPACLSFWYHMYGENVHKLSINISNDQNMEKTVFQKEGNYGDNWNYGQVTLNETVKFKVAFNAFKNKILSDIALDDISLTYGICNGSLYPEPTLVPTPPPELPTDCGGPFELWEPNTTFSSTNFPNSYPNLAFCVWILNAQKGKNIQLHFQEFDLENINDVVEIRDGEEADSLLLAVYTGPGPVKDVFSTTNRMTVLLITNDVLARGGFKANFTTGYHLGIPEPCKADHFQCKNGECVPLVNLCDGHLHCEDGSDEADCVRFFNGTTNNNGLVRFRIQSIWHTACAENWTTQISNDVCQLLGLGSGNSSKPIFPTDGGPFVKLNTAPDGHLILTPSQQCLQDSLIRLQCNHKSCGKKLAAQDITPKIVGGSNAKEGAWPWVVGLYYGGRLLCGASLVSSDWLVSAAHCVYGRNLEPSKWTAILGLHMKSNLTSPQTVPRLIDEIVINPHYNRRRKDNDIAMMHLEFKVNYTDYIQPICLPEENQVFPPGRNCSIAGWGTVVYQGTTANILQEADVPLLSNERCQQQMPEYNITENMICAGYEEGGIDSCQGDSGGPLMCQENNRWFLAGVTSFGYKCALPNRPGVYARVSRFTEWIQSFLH
experimentDescription: Measurement of enteropeptidase inhibitory activity
measurementParameters: substrate Gly-Asp-Asp-Asp-Asp-Lys-β-Naphtylamide, Tris-HCl pH 8.0, Dixon plot
One number for each entry, in nM.

compound	unitAbbreviation	numericReadout
CC(C)(Cc1ccc(C(=O)Oc2ccc(C(=N)N)cc2F)s1)C(=O)NC(C)(C)C(=O)O	nM	0.69
CC(C)(Cc1ccc(C(=O)Oc2ccc(C(=N)N)cc2F)s1)C(=O)N1CC[C@@H](C(=O)O)C1	nM	1.02
CC(C)(Cc1ccc(C(=O)Oc2ccc(C(=N)N)cc2F)s1)C(=O)N1CC(C(=O)O)C1	nM	0.63
CC(C)(Cc1ccc(C(=O)Oc2ccc(C(=N)N)cc2F)s1)C(=O)N[C@@H](C(=O)O)c1ccccc1	nM	0.97
CCC(CC)(Cc1ccc(C(=O)Oc2ccc(C(=N)N)cc2F)s1)C(=O)N[C@@H](Cc1ccccc1)C(=O)O	nM	1.1

Hi there! I need Ki for each item below, if you can.
1. CC(C)(Cc1ccc(C(=O)Oc2ccc(C(=N)N)cc2F)s1)C(=O)NCCC#N
2. CCC(CC)(Cc1ccc(C(=O)Oc2ccc(C(=N)N)cc2F)s1)C(=O)N[C@@H](C)C(=O)O
3. CCC(CC)(Cc1ccc(C(=O)Oc2ccc(C(=N)N)cc2F)s1)C(=O)N[C@H](CC(=O)O)C(=O)O
4. CCC(CC)(Cc1ccc(C(=O)Oc2ccc(C(=N)N)cc2F)s1)C(=O)N[C@@H](CC(=O)O)C(=O)O
5. CC(C)(Cc1ccc(C(=O)Oc2ccc(C(=N)N)cc2F)s1)C(=O)N1CCC(C(=O)O)CC1
6. CC(C)(Cc1ccc(C(=O)Oc2ccc(C(=N)N)cc2F)s1)C(=O)N1C[C@@H]1C(=O)O
7. CC(C)(Cc1ccc(C(=O)Oc2ccc(C(=N)N)cc2F)s1)C(=O)N[C@H]1CC[C@@H](C(=O)O)CC1

Output:
1. 2.9
2. 0.73
3. 0.26
4. 0.33
5. 1.33
6. 1.76
7. 1.11

----------
Provide the recorded Ki for the entries that follow.
assaySystem: human trypsin
experimentDescription: Measurement of trypsin inhibitory activity
measurementParameters: substrate Boc-Phe-Ser-Arg-AMC, Tris-HCl pH 8.0, Dixon plot
Answer as a quantity: numeral, then unit.

As a guide, the following entries are already answered.
structureNotation	quantityKind	result
CC(C)(Cc1ccc(C(=O)Oc2ccc(C(=N)N)cc2F)s1)C(=O)Nc1ccc(O)c(C(=O)O)c1	Ki	0.92 nM
CCC(CC)(Cc1ccc(C(=O)Oc2ccc(C(=N)N)cc2F)s1)C(=O)NCCCC(=O)O	Ki	2.73 nM
CCC[C@H](NC(=O)C(CC)(CC)Cc1ccc(C(=O)Oc2ccc(C(=N)N)cc2F)s1)C(=O)O	Ki	3.84 nM
CCC(CC)(Cc1ccc(C(=O)Oc2ccc(C(=N)N)cc2F)s1)C(=O)NCc1ccc(C(=O)O)cc1	Ki	9.27 nM
CCC(CC)(Cc1ccc(C(=O)Oc2ccc(C(=N)N)cc2F)s1)C(=O)NCc1nnn[nH]1	Ki	3.54 nM
CCC(CC)(Cc1ccc(C(=O)Oc2ccc(C(=N)N)cc2F)s1)C(=O)NC1(C(=O)O)CCC1	Ki	4.67 nM
CC(C)(Cc1ccc(C(=O)Oc2ccc(C(=N)N)cc2F)s1)C(=O)NCCC#N	Ki	3.65 nM
CCC(CC)(Cc1ccc(C(=O)Oc2ccc(C(=N)N)cc2F)s1)C(=O)NCC(=O)NCC(=O)O	Ki	1.42 nM

# ---- query molecule ----
Input: Query Ki for CCC(CC)(Cc1ccc(C(=O)Oc2ccc(C(=N)N)cc2F)s1)C(=O)N[C@@H](CC(N)=O)C(=O)O
Output: 1.69 nM

Sourced from patent US9024044B2
